# Tested on: RPMI-8226 leukemia
# assayMethodText: NCI tumour cell line growth inhibition, 48 h
outcomeMeasure: TGI (µM)
Answers are plain numbers, in µM.

Please review the following examples before continuing.
O=C(COc1cccc(/C=C2\CSc3ccccc3C2=O)c1)Nc1nccs1; 2.79
COc1cc(C2c3cc4c(cc3OC(N3CCNCC3)C2C)OCO4)cc(OC)c1OC (stereo unspecified); 17.3
NS(=O)(=O)OCCCCCCCOS(N)(=O)=O; 1330
CC1=C(C(=O)Nc2cc(F)c(F)cc2F)C(c2ccc([N+](=O)[O-])cc2)C(C(=O)Nc2cc(F)c(F)cc2F)=C(C)N1; 45.1
O=C(CN1C(=O)S/C(=C\C(Cl)=C\c2ccccc2)C1=O)NC1C=CS(=O)(=O)C1 (stereo unspecified); 4.33

Kindly give each listed record's TGI.
1. CC1=C(C(=O)Nc2ccc(Cl)c(C(=O)OC(C)C)c2)SCCO1
2. Cc1cc(=O)[nH]c(NN2C(Cl)C(=O)C2c2cccc(Cl)c2)n1 (stereo unspecified)
3. CCCCCCCCCCCC[n+]1ccc2ccccc2c1

1: 67.7; 2: 34.8; 3: 0.949

State the recorded TGI for every item in the following list.
1. C(=C\N1CCCCC1)/c1nnnn1-c1ccccc1
2. O=C(CCc1ccccc1)ON1C(=S)C(c2ccccc2)(c2ccccc2)N=C1Sc1ccccc1
3. CCc1nc2ccc(NCCN(C)C)c3c(=O)c4ccccc4n1c23

1: 59.6; 2: 74.6; 3: 7.78

Could I get TGI for every one of these entries?
1. C/C1=C\C=C(\C(C)C)CC/C(C(=O)O)=C\CC/C(C)=C/CC1
2. O=C1C(CN2CCOCC2)CCCC1CN1CCOCC1 (stereo unspecified)

42.2
2.34

Hi, could you look up TGI for each item in my list?
1. CCOC(=O)C1=C(C)N(c2ccc(OC)cc2)C2(O)C=CC(=O)C3=C(O)c4ccccc4C(=O)C312 (stereo unspecified)
2. CC[C@H](C)[C@H](NC(=O)[C@H]1CCCCN1C)C(=O)N(C)[C@H](C[C@@H](OC(C)=O)c1nc(C(=O)N[C@@H](Cc2ccccc2)C[C@H](C)C(=O)O)cs1)C(C)C
3. CSC(=Nc1ccccc1)/N=C(\SCc1ccccc1)N(C)C
4. C[C@]12CCC3[C@@H](CC[C@@H]4c5nonc5CC[C@]34C)C1CC[C@@H]2O (stereo partly specified)
5. COc1cc(-c2ccccc2N)c2cccnc2c1OC

[10.9, 6.56, 3.57, 38.9, 14.8]

Sample O=C1/C=C/[C@@H](O)[C@@H]2C[C@@H](O)C[C@H]2/C=C/CCC[C@H](C(F)(F)F)O1 ; TGI observed: 1.04
